assay target: human PAR-1 (Homo sapiens, UniProt P25116)
Construct: expressed in transfected cells; host or cells: CHO-K1 (transformant flag/trn/CHO-K1)
Sequence (P25116 22-425): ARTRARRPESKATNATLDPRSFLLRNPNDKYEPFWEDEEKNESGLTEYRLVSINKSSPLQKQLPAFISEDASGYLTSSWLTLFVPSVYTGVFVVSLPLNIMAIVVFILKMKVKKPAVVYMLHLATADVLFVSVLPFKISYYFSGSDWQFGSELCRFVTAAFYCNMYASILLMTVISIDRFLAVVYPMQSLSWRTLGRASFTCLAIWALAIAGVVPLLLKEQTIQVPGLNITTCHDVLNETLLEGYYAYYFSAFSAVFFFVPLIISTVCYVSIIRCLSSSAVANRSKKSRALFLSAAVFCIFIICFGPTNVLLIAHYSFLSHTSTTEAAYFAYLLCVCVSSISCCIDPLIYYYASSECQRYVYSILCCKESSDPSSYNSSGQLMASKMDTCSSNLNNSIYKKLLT
method summary: Evaluation of PAR-1 antagonistic action by intracellular calcium concentration variation assay (FLIPR)
Assay type: cell-based
measurement setup: human PAR-1-expressing CHO cells, agonist peptide SFLLRN-NH2 final concentration 0.3 nM, Fluo-3AM
assay endpoint: IC50 (µM)

CCNC(=O)c1ccc(-n2nnc(C(=O)NC3CC3)c2COc2ccc(OC)cc2)cc1 | 3.3
CCNC(=O)c1ccc(-n2nnc(C(=O)NC3CC3)c2CCCOCc2ccccc2)cc1 | 2.2
CCNC(=O)c1ccc(-n2nnc(C(=O)NC3CC3)c2COc2cccc(F)c2)cc1 | 0.19
CCCc1c(C(=O)NC2CC2)nnn1-c1ccc(C(=O)NCC(C)C)cc1 | 1.4
CCNC(=O)c1ccc(-n2nnc(C(=O)NC3CC3)c2CC2CCCCC2)cc1 | 1.8

1: CCCc1c(C(=O)NC2CC2)nnn1-c1ccc(C(=O)NC2CCCC2)cc1
2: CCNC(=O)c1ccc(-n2nnc(C(=O)NC3CC3)c2CSc2ccccc2)cc1
### Prompt Between the entries labelled 1 and 2 , which has a larger IC50 value on record? Kindly state the label of the option you pick.
### Response 1
(1: 1.6 µM, 2: 0.48 µM)

a: CCCc1c(C(=O)NC2CC2)nnn1-c1ccc(C(=O)NC(C)C)cc1
b: CCNC(=O)c1ccc(-n2nnc(C(=O)NC3CC3)c2COCc2ccccc2)cc1
c: CCCc1c(C(=O)NC2CC2)nnn1-c1ccc(C(=O)NCC(F)(F)F)cc1
### Prompt Rank items: key IC50, increasing. Write out the labels following the order that was asked for.
### Response c, b, a
(c: 0.95 µM, b: 1.7 µM, a: 3.5 µM)

P: CCCc1c(C(=O)NC2CC2)nnn1-c1ccc(C(=O)NCC)cc1Cl
Q: CCNC(=O)c1ccc(-n2nnc(C(=O)NC3CC3)c2CCc2ccccc2)cc1
R: CCCc1c(C(=O)N2CCc3c([nH]c4ccccc34)C2)nnn1-c1ccc(C(=O)NCC)cc1
S: CCNC(=O)c1ccc(-n2nnc(C(=O)NC3CC3)c2CC(C)C)cc1
T: CCCc1c(C(=O)NCc2cccc(F)c2)nnn1-c1ccc(C(=O)NCC)cc1
### Prompt Order the records, beginning with the lowest IC50 and ending with the highest. Reply with the item labels sorted in the order that was asked for.
### Response Q, T, S, R, P
(Q: 0.5 µM, T: 0.72 µM, S: 1.2 µM, R: 1.9 µM, P: 3.4 µM)
